species: Homo sapiens; experiment: Oral absorption using Caco-2 cell monolayers.; format: ADME; details: in vitro
Can you tell me Absorption for the items I'm about to list?

Quick check: Absorption of CN(CCCC(=O)NCC1=CCc2ccccc2C(CC(=O)O)C1)c1ccccn1 (centres undefined) ?
94%

Quick check: Absorption of O=C(O)CC1CC(CNC(=O)CCCNC2=NCCN2)=CCc2ccccc21 (centres undefined) ?
< 20%

Quick check: Absorption of O=C(O)CC1CC(CNC(=O)CCCNc2nccs2)=CCc2ccccc21 (centres undefined) ?
96%

Quick check: Absorption of O=C(O)CC1CC(CNC(=O)CCCCNc2ccccn2)=CCc2ccccc21 (centres undefined) ?
96%

These data points were gathered from ChEMBL document CHEMBL1135955.
